All values here come from patent US10723704B2.

# Test description: Pharmacokinetic activity in rats: IV bolus and oral gavage; plasma, brain and CSF levels by LC-MS/MS
# Assay type: in vivo, Male Sprague-Dawley rats
# Measurement conditions: male, Sprague-Dawley, brain; rat, PO 10 mg/kg, 0.25 h; read-out: mean brain:plasma ratio
Readout name: Kp at 0.25 h
Reply with the value as a number alone.

Reported Kp at 0.25 h, compound CCOC(=O)CN1N=C(c2ccc(S(C)(=O)=O)cc2)C(C)(NO)C1=O (stereo not shown) : ____ 1.1

====

Listed below: Cmax values for each entry.
# Test description: Pharmacokinetic activity in rats: IV bolus and oral gavage; plasma, brain and CSF levels by LC-MS/MS
# Format: in vivo, Male Sprague-Dawley rats
# Measurement conditions: male, Sprague-Dawley, plasma; rat, PO administration of Compound 6, 10 mg/kg in 100% PEG300, mean; read-out: plasma Cmax
State just the number; it will be interpreted in ng/mL.

Compound	Measured
CCOC(=O)CN1N=C(c2ccc(S(C)(=O)=O)cc2)C(C)(NO)C1=O (centres unmarked)	8

Here is the next item to consider.
Given the compound CC1(NO)C(=O)N(CC(=O)O)N=C1c1ccc(S(C)(=O)=O)cc1 (centres unmarked) , what is its reported Cmax? 5220
